Test system: MS2 coat protein
Experiment: apparent KD of MS2 coat protein; designed switch direction (-1 OFF switch, 1 ON switch): 1; higher = weaker reporter binding
Settings: Eterna round: R95; input ligand: none
Binary call on apparent KD of MS2 coat protein: 1.0 from 90 nM upward, 0.0 beneath that.

## Input Assess whether reported apparent KD of MS2 coat protein for GCCACACAUGAGGAUCACCCAUGUAAUUACAUGGGAGGAUAUCAGUGCUCGAAAGAGCACUGAGAAGGCCUGUGGC [SS1 - Omei A v3] (puzzle: Same State 1) sits at 90 nM or higher.
## Output 0.0

## Input Assess whether reported apparent KD of MS2 coat protein for AACAAUCUAUCUGAGGAUAUCAUGAAAUAAACAUGAGGAUCACCCAUGUGCAGGAAAACUGCAUAUGAGAAGGCAGAUAGAUUGA [salish99_ss2_r3_x] (puzzle: Same State 2) sits at 90 nM or higher.
## Output 1.0

## Input Assess whether reported apparent KD of MS2 coat protein for ACACUUGCACAUGAGGAUCACCCAUGUUGACAAGCUUUUUGCUCGUCUUAUAGAACAAAGAAGAAGAACAACAGAAA [Victory 2] (puzzle: Sensor for hsa-mir-208a version 2) sits at 90 nM or higher.
## Output 0.0

## Input Assess whether reported apparent KD of MS2 coat protein for UGGAUCUAGGCUUGCCUGGGUCCAUGCUGACAUGAGGAUCACCCAUGUGCAUUCUAUAAGCUUUUUGUUUGUCAGCU (puzzle: Sensor for hsa-mir-208a) sits at 90 nM or higher.
## Output 1.0

## Input Assess whether reported apparent KD of MS2 coat protein for UAAACUUCUUUUAGUGUAAUGCAAGUGAAACAUGAGGAUCACCCAUGUAAAGGAUCGUGAUAUUUUGUUCGUCUUAA [JR_SHM208A_Sub076] (puzzle: Sensor for hsa-mir-208a) sits at 90 nM or higher.
## Output 0.0

## Input Assess whether reported apparent KD of MS2 coat protein for AUGUGGAAGCCACAGGAUAUACUAGGGUACACAUGAGGAUCACCCAUGUGCGGCUAAAAGUGCUAGUAGAAGGGUGGUAAAGAAA [Diartire] (puzzle: Same State 2) sits at 90 nM or higher.
## Output 0.0

## Input Assess whether reported apparent KD of MS2 coat protein for AGCUUACAUGAGGAUCACCCAUGUUUUAGCCAGACAGGAUAUGGGUAUCUAAAACACAACCCAGAAGGGUCAAAAC [Usveriri] (puzzle: Same State 1) sits at 90 nM or higher.
## Output 1.0

## Input Assess whether reported apparent KD of MS2 coat protein for AUAAGUUUGAUGCUCGUCUCUCCGUACAGACAUGAGGAUCACCCAUGUAGCCGGGAAGUAGCCCGACCAGUAUGGCC [Isriinus] (puzzle: Sensor for hsa-mir-208a) sits at 90 nM or higher.
## Output 1.0
